target: UBE2K; experiment: reporter assay of Huesken 2005; settings: siRNA; also: test concentration or dose not given here
Oligonucleotides are given in HELM: sugar(base)linkage, 5' to 3'; d 2'-deoxyribose, r ribose, m 2'-O-methylribose, p phosphate. ss, as = sense and antisense strand
normalised inhibition (eCFP-eYFP dual reporter) overview
Numbers only here, please. The scale is %.

// below: answered substances
RNA1{r(A)p.r(G)p.r(G)p.r(A)p.r(C)p.r(C)p.r(U)p.r(C)p.r(C)p.r(A)p.r(G)p.r(A)p.r(C)p.r(A)p.r(C)p.r(A)p.r(C)p.r(C)p.r(A)p.d(T)p.d(T)}|RNA2{r(U)p.r(G)p.r(G)p.r(U)p.r(G)p.r(U)p.r(G)p.r(U)p.r(C)p.r(U)p.r(G)p.r(G)p.r(A)p.r(G)p.r(G)p.r(U)p.r(C)p.r(C)p.r(U)p.d(G)p.d(C)}$$$RNA1{StrandType:ss}|RNA2{StrandType:as}$ :: 74.6
RNA1{r(U)p.r(G)p.r(G)p.r(C)p.r(A)p.r(U)p.r(C)p.r(C)p.r(U)p.r(A)p.r(A)p.r(U)p.r(A)p.r(U)p.r(U)p.r(A)p.r(G)p.r(U)p.r(U)p.d(T)p.d(T)}|RNA2{r(A)p.r(A)p.r(C)p.r(U)p.r(A)p.r(A)p.r(U)p.r(A)p.r(U)p.r(U)p.r(A)p.r(G)p.r(G)p.r(A)p.r(U)p.r(G)p.r(C)p.r(C)p.r(A)p.d(T)p.d(A)}$$$RNA1{StrandType:ss}|RNA2{StrandType:as}$ :: 61.6
RNA1{r(U)p.r(A)p.r(U)p.r(U)p.r(G)p.r(U)p.r(C)p.r(A)p.r(U)p.r(U)p.r(G)p.r(C)p.r(A)p.r(A)p.r(G)p.r(C)p.r(A)p.r(C)p.r(U)p.d(T)p.d(T)}|RNA2{r(A)p.r(G)p.r(U)p.r(G)p.r(C)p.r(U)p.r(U)p.r(G)p.r(C)p.r(A)p.r(A)p.r(U)p.r(G)p.r(A)p.r(C)p.r(A)p.r(A)p.r(U)p.r(A)p.d(A)p.d(T)}$$$RNA1{StrandType:ss}|RNA2{StrandType:as}$ :: 89.2
RNA1{r(A)p.r(U)p.r(A)p.r(C)p.r(C)p.r(A)p.r(G)p.r(A)p.r(A)p.r(A)p.r(C)p.r(A)p.r(U)p.r(A)p.r(C)p.r(C)p.r(C)p.r(A)p.r(U)p.d(T)p.d(T)}|RNA2{r(A)p.r(U)p.r(G)p.r(G)p.r(G)p.r(U)p.r(A)p.r(U)p.r(G)p.r(U)p.r(U)p.r(U)p.r(C)p.r(U)p.r(G)p.r(G)p.r(U)p.r(A)p.r(U)p.d(T)p.d(T)}$$$RNA1{StrandType:ss}|RNA2{StrandType:as}$ :: 76.3

Attention now turns to another entry.
Any idea what normalised inhibition (eCFP-eYFP dual reporter) was measured for "RNA1{r(G)p.r(C)p.r(U)p.r(G)p.r(U)p.r(A)p.r(G)p.r(U)p.r(A)p.r(G)p.r(C)p.r(A)p.r(A)p.r(A)p.r(U)p.r(C)p.r(A)p.r(G)p.r(U)p.d(T)p.d(T)}|RNA2{r(A)p.r(C)p.r(U)p.r(G)p.r(A)p.r(U)p.r(U)p.r(U)p.r(G)p.r(C)p.r(U)p.r(A)p.r(C)p.r(U)p.r(A)p.r(C)p.r(A)p.r(G)p.r(C)p.d(A)p.d(T)}$$$RNA1{StrandType:ss}|RNA2{StrandType:as}$" ?
87.4
